Ref: ChEMBL document CHEMBL4419174

Here, each record is paired with measured pIC50 data.
- target-system: DNA dC->dU-editing enzyme APOBEC-3A (Homo sapiens, UniProt P31941)
- Sequence (P31941 whole entry): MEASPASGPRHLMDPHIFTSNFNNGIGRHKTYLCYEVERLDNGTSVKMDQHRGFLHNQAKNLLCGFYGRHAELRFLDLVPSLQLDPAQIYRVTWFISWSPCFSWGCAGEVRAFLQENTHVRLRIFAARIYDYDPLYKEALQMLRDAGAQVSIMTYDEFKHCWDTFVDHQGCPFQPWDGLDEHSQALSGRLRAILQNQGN
- experiment-summary: Inhibition of recombinant APOBEC3A (unknown origin) expressed in HEK293 cells assessed as reduction in cytosine deaminase activity using 5'-6-FAM and 3'-TAMRA quench molecule tagged cytosine-containing single-stranded DNA substrate incubated for 2 hrs by fluorescence-based assay
pIC50: −log10 of the molar value.

{"structure-string": "O=C(Nc1nnc(-c2ccncc2)s1)c1cc(=O)[nH]c2ccccc12", "target-system": "DNA dC->dU-editing enzyme APOBEC-3A (Homo sapiens, UniProt P31941)", "pIC50": "< 4.00"}
{"structure-string": "N#Cc1ncnn1C(=O)c1cc(=O)[nH]c2ccccc12", "target-system": "DNA dC->dU-editing enzyme APOBEC-3A (Homo sapiens, UniProt P31941)", "pIC50": "< 4.00"}
{"structure-string": "Nc1ccc2[nH]c(=O)cc(C(=O)Nc3nnc(-c4ccncc4)s3)c2c1", "target-system": "DNA dC->dU-editing enzyme APOBEC-3A (Homo sapiens, UniProt P31941)", "pIC50": "< 4.00"}

Continue with the compound presented below.
**Query** Field: pIC50 (DNA dC->dU-editing enzyme APOBEC-3A (Homo sapiens, UniProt P31941)). Entry: O=C(Nc1nnc(-c2ccncc2)s1)c1ccc(O)nc1
**Result** 4.06

###

- experiment-summary: Inhibition of recombinant APOBEC3G 2K3A mutant (unknown origin) expressed in HEK293 cells assessed as reduction in cytosine deaminase activity using 5'-6-FAM and 3'-TAMRA quench molecule tagged cytosine-containing single-stranded DNA substrate incubated for 2 hrs by fluorescence-based assay
- Format: cell-based, Homo sapiens
pIC50: −log10 of the molar value.
measured-endpoint: pIC50

{"structure-string": "O=C(Nc1nnc(-c2ccncc2)s1)c1cc(=O)[nH]c2ccc([N+](=O)[O-])cc12", "measured-endpoint": "pIC50", "data-value": 4.13}

(P) Nc1ccc2[nH]c(=O)cc(C(=O)Nc3nnc(-c4ccncc4)s3)c2c1
(Q) COc1ccc2[nH]c(=O)cc(C(=O)Nc3nnc(-c4ccncc4)s3)c2c1
**Query** Which of the two items, P and Q , has the greater recorded pIC50? Selection: enter the item's label.
**Result** Q
(Q: 4.62, P: 4.26)

###

- target-system: DNA dC->dU-editing enzyme APOBEC-3G (Homo sapiens, UniProt Q9HC16)
- Sequence (Q9HC16 whole entry): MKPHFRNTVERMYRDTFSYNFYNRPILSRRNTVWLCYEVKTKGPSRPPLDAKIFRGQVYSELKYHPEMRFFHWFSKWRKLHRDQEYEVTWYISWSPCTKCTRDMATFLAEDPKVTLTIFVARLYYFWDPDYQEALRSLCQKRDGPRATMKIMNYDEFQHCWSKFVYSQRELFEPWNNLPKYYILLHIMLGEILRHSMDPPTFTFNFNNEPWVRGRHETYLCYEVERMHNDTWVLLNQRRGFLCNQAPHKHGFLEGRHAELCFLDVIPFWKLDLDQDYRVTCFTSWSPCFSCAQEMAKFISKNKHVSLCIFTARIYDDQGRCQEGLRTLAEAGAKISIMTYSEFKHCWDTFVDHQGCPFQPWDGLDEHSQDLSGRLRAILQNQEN
- experiment-summary: Inhibition of recombinant APOBEC3G (unknown origin) expressed in HEK293 cells assessed as reduction in cytosine deaminase activity using 5'-6-FAM and 3'-TAMRA quench molecule tagged cytosine-containing single-stranded DNA substrate incubated for 2 hrs by fluorescence-based assay
pIC50: −log10 of the molar value.
measured-endpoint: pIC50

Use the examples below as a reference point.
{"structure-string": "O=C(Nc1nnc(-c2ccncc2)s1)c1cc(Cl)nc2ccccc12", "pIC50": 4.66}
{"structure-string": "COc1ccc2[nH]c(=O)cc(C(=O)Nc3nnc(-c4ccncc4)s3)c2c1", "pIC50": 4.77}
{"structure-string": "O=C(Nc1nnc(-c2ccncc2)s1)c1cc(=O)[nH]c2ccc([N+](=O)[O-])cc12", "pIC50": 4.92}
{"structure-string": "N#Cc1ncnn1C(=O)c1cc(=O)[nH]c2ccccc12", "pIC50": 4.82}
{"structure-string": "O=C(Nc1nnc(-c2ccncc2)s1)c1cc(=O)[nH]c2ccccc12", "pIC50": 4.05}

(P) Nc1ccc2[nH]c(=O)cc(C(=O)Nc3nnc(-c4ccncc4)s3)c2c1
(Q) O=C(Nc1nnc(-c2ccncc2)s1)c1ccnc(O)c1
**Query** Which of the two items, P and Q , has the greater recorded pIC50? Selection: enter the item's label.
**Result** P
(P: 4.74, Q: 4.22)
